- Experimental System: T1, ECF15_436
- T1 chain: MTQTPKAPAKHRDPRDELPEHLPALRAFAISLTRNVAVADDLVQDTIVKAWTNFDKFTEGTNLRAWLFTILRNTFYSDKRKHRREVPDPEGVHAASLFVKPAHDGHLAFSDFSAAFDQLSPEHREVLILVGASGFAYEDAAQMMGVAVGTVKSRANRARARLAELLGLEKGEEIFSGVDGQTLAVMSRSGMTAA
Measurement Name: fold repression

1. AS27_4265 (protein) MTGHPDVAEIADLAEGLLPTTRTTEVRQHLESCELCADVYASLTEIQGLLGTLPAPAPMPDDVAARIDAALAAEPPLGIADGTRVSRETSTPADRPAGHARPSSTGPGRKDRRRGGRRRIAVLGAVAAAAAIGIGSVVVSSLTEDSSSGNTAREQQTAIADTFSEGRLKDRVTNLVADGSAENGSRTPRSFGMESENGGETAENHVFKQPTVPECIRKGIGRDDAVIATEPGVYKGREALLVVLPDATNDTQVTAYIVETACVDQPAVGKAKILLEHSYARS :: 3.65
